target: 5HT2A (Homo sapiens (Human)); assay: 5HT2A agonist effect assay; format: cell-based; settings: 100 nM, read-out: % stimulation relative to control (100 nM)
Would you mind telling me the reported activation at 0.1 µM of each entry?
Answers are plain numbers, in %.

Some molecules with recorded activation at 0.1 µM:
[[record]]
chem_smiles = "CC1(C)CN(S(=O)(=O)c2cccc(Cl)c2)Cc2cc(N3CCN(C4CCCC4)CC3)ccc21"
observation_type = "activation at 0.1 µM"
reading = 0

[[record]]
chem_smiles = "Cc1cc(-c2ccc3c(c2)CN(CCC(=O)N2CCc4ccccc4C2)CCC3(C)C)cc(C)n1"
observation_type = "activation at 0.1 µM"
reading = -1


Hey, quick one: what's activation at 0.1 µM for each of these?
1. CC1(C)CCN(C(=O)c2cccc3c2OCO3)Cc2cc(N3CCC(N4CCOCC4)CC3)ccc21
2. CC(C)OC(=O)N1CCC(C)(C)c2ccc(N3CCN(C4CCCC4)CC3)cc2C1

Completion:
-2
1

Hey, quick one: what's activation at 0.1 µM for each of these?
1. CC1(C)CCN(C(=O)C2CCCC2)Cc2cc(N3CCN(C4CCCC4)CC3)ccc21
2. CC1(C)CCN(C2CCCCC2)Cc2cc(-c3ccc(C(F)(F)F)cc3)ccc21
3. CC1(C)CN(C(=O)OC2CCCCC2)Cc2cc(N3CCN(C4CCCC4)CC3)ccc21

Completion:
1: 2; 2: 1; 3: -4

# molecule "CC1(C)CN(C(=O)c2cc(F)cc(Cl)c2)Cc2cc(N3CCN(C4CCCC4)CC3)ccc21" ; its activation at 0.1 µM = 0
